Values were extracted from patent US10308686B2.

Tested on: methicillin-resistant S. aureus (ATCC 33592)
Condition info: Table 7
Quantity: MIC, Gram positive S. aureus (µg/mL)
Just the number please, in µg/mL, no unit attached.

// solved cases for MIC, Gram positive S. aureus follow
1. CCCCCCCC/C=C\CCCCCCCC(=O)N[C@@H](CCCCN)CN(CC(=O)N[C@@H](CCCCN)CN(CC(N)=O)C(=O)CCCN)C(=O)CCCN : 5
2. CCCCCCCCCCCCCCCC(=O)N[C@@H](CCCCN)CN(CC(=O)N[C@@H](CCCCN)CN(CC(=O)N[C@@H](CCCCN)CN(CC(N)=O)C(=O)CCCN)C(=O)CCCN)C(=O)CCCN : 5

# ---- query compound ----
Record request: MIC, Gram positive S. aureus value, item CC(C)C[C@@H](CN(CC(=O)N[C@@H](CCCCN)CN(CC(N)=O)C(=O)CCc1ccccc1)C(=O)CCc1ccccc1)NC(=O)CN(C[C@H](CCCCN)NC(=O)CN(C[C@H](CCCCN)NC(=O)CN(C[C@H](CC(C)C)NC(=O)CN(C[C@H](CCCCN)NC(=O)CN(C[C@@H](N)CCCCN)C(=O)CCc1ccccc1)C(=O)CCc1ccccc1)C(=O)CCc1ccccc1)C(=O)CCc1ccccc1)C(=O)CCc1ccccc1
5
